Reported Neutral Red Dye Uptake at Indicated Drug Concentration values for a set of compounds
System: 2.2.15 cells
test_method_notes: Toxicity analysis by neutral red dye uptake in 2.2.15 cells
Type: cell-based
study_conditions: 10 μM
measurement_label: Neutral Red Dye Uptake at Indicated Drug Concentration

{"compound": "C=C(C)CC/C=C/COP(=O)(S)OC[C@H]1O[C@@H](n2cnc3c(N)ncnc32)C[C@@H]1O (stereo partly shown) [Nucleoside W198-10]", "target_or_test_system": "2.2.15 cells", "result": "100 ± 1 % of control"}
{"compound": "C/C=C(/COP(=O)(S)OC[C@H]1O[C@@H](n2cnc3c(N)ncnc32)C[C@@H]1O)c1ccccc1 (stereo partly shown) [Nucleoside W198-21]", "target_or_test_system": "2.2.15 cells", "result": "99 ± 3 % of control"}
{"compound": "C=C(C)[C@@H]1CC=C(COP(=O)(S)OC[C@H]2O[C@@H](n3cnc4c(N)ncnc43)C[C@@H]2O)CC1 (stereo partly shown) [Nucleoside W198-24]", "target_or_test_system": "2.2.15 cells", "result": "100 ± 1 % of control"}
{"compound": "Nc1ncnc2c1ncn2[C@H]1C[C@H](O)[C@@H](COP(=O)(S)OCc2ccc3ccccc3c2)O1 (stereo partly shown) [Nucleoside W198-22]", "target_or_test_system": "2.2.15 cells", "result": "99 ± 2 % of control"}

----------
Test system: 2.2.15 cells
test_method_notes: Toxicity analysis by neutral red dye uptake in 2.2.15 cells
Type: cell-based
study_conditions: 30 μM
measurement_label: Neutral Red Dye Uptake at Indicated Drug Concentration

{"compound": "C=C(C)[C@@H]1CC=C(COP(=O)(S)OC[C@H]2O[C@@H](n3cnc4c(N)ncnc43)C[C@@H]2O)CC1 (stereo partly shown) [Nucleoside W198-24]", "result": "102 ± 2 % of control"}
{"compound": "C=C(C)CC/C=C/COP(=O)(S)OC[C@H]1O[C@@H](n2cnc3c(N)ncnc32)C[C@@H]1O (stereo partly shown) [Nucleoside W198-10]", "result": "102 ± 2 % of control"}
{"compound": "Nc1ncnc2c1ncn2[C@H]1C[C@H](O)[C@@H](COP(=O)(S)OCc2ccc3ccccc3c2)O1 (stereo partly shown) [Nucleoside W198-22]", "result": "101 ± 3 % of control"}
{"compound": "C/C=C(/COP(=O)(S)OC[C@H]1O[C@@H](n2cnc3c(N)ncnc32)C[C@@H]1O)c1ccccc1 (stereo partly shown) [Nucleoside W198-21]", "result": "99 ± 1 % of control"}
